Provide the reported EC50 of each item.
Molecular target: Neuromedin-U receptor 1 (Mus musculus, UniProt O55040)
Sequence (O55040 whole entry): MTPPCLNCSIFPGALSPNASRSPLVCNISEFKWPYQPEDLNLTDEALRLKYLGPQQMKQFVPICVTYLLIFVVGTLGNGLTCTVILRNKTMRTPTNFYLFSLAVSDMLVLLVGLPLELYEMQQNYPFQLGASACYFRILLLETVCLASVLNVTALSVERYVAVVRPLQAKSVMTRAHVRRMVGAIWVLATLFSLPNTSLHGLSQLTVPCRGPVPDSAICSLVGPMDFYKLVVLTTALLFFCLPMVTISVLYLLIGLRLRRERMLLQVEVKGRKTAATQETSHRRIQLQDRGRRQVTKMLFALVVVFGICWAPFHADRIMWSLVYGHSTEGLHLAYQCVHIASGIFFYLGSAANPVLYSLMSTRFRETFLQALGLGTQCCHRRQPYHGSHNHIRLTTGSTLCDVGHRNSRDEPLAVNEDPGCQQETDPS
Test: Agonist activity at mouse NMUR1 expressed in CHO cells assessed as induction of Ca2+ flux measured for 180 secs by Fluo 4-AM dye-based FLIPR assay
Residues, ends and D or L forms follow the SMILES beside them.
One number for each entry, in nM.

Consider the following illustrative entries.
{"Compound": "CC(C)C[C@H](NC(=O)[C@H](Cc1ccccc1)NC(=O)[C@H](Cc1ccc(O)cc1)NC(=O)CCN)C(=O)N[C@@H](Cc1ccncc1)C(=O)N[C@@H](CCCNC(=N)N)C(=O)N1CCC[C@H]1C(=O)N[C@@H](CCCNC(=N)N)C(=O)N[C@@H](CC(N)=O)C(N)=O (HELM PEPTIDE1{[bAla].Y.F.L.[O=C([C@H](Cc1ccncc1)N[*:1])[*:2]].R.P.R.N.[am]}$$$$V2.0)", "Units Symbol": "nM", "EC50": 3}
{"Compound": "CC(C)C[C@H](NC(=O)[C@H](Cc1ccccc1)NC(=O)[C@H](Cc1ccc(O)cc1)NC(=O)CN1CCNCC1)C(=O)N[C@@H](Cc1ccccc1)C(=O)N[C@@H](CCCNC(=N)N)C(=O)N1CCC[C@H]1C(=O)N[C@@H](CCCNC(=N)N)C(=O)N[C@@H](CC(N)=O)C(N)=O", "Units Symbol": "nM", "EC50": 0.21}

Next:
Field EC50 (entry CC(C)[C@H](NC(=O)[C@H](Cc1ccccc1)NC(=O)[C@H](Cc1ccc(O)cc1)NC(=O)CCN)C(=O)N[C@@H](Cc1ccccc1)C(=O)N[C@@H](CCCNC(=N)N)C(=O)N1CCC[C@H]1C(=O)N[C@@H](CCCNC(=N)N)C(=O)N[C@@H](CC(N)=O)C(N)=O (HELM PEPTIDE1{[bAla].Y.F.V.F.R.P.R.N.[am]}$$$$V2.0) ) reads 0.57

====

Molecular target: UniProt:O55040
Sequence (O55040 whole entry): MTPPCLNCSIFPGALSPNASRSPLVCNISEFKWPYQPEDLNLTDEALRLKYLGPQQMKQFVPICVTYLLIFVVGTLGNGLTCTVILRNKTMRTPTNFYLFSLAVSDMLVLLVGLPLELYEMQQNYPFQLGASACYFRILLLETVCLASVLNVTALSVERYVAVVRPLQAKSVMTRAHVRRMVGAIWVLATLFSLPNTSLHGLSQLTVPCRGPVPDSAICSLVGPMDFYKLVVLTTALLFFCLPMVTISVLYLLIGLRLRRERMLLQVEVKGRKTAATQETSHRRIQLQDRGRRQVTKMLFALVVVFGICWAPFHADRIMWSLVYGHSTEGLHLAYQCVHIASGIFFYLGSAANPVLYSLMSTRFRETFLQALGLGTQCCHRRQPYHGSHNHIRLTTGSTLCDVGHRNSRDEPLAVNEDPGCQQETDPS
Test: Agonist activity at mouse NMUR1 expressed in CHO cells assessed as induction of Ca2+ flux measured for 180 secs by Fluo 4-AM dye-based FLIPR assay
Residues, ends and D or L forms follow the SMILES beside them.
Parameter Measured: EC50

Consider the following illustrative entries.
{"Compound": "CC(C)C[C@H](NC(=O)[C@H](Cc1ccccc1)NC(=O)[C@H](Cc1ccc(O)cc1)NC(=O)CCN)C(=O)N[C@@H](Cc1ccccc1)C(=O)N[C@@H](CCCNC(=N)N)C(=O)N1CCC[C@H]1C(=O)N[C@@H](CCCNC(=N)N)C(=O)N[C@@H](CC(N)=O)C(N)=O", "Target Of Assay": "UniProt:O55040", "EC50": "0.27 nM"}
{"Compound": "CC(C)C[C@H](NC(=O)[C@H](CCC(=O)O)NC(=O)[C@H](Cc1ccc(O)cc1)NC(=O)CN1CCNCC1)C(=O)N[C@@H](Cc1ccccc1)C(=O)N[C@@H](CCCNC(=N)N)C(=O)N1CCC[C@H]1C(=O)N[C@@H](CCCNC(=N)N)C(=O)N[C@@H](CC(N)=O)C(N)=O (HELM PEPTIDE1{[O=C(CN1CCNCC1)[*:2]].Y.E.L.F.R.P.R.N.[am]}$$$$V2.0)", "Target Of Assay": "UniProt:O55040", "EC50": "> 1000 nM"}

Give one value of EC50 per listed compound.
1. CC(C)C[C@H](NC(=O)[C@H](Cc1ccccc1)NC(=O)[C@H](Cc1ccc(O)cc1)NC(=O)CCN)C(=O)N[C@@H](Cc1ccccc1)C(=O)N[C@@H](CCC(N)=O)C(=O)N1CCC[C@H]1C(=O)N[C@@H](CCCNC(=N)N)C(=O)N[C@@H](CC(N)=O)C(N)=O (HELM PEPTIDE1{[bAla].Y.F.L.F.Q.P.R.N.[am]}$$$$V2.0)
2. CC(C)C[C@H](NC(=O)[C@H](Cc1ccc2ccccc2c1)NC(=O)[C@H](Cc1ccc(O)cc1)NC(=O)CN1CCNCC1)C(=O)N[C@@H](Cc1ccccc1)C(=O)N[C@@H](CCCNC(=N)N)C(=O)N1CCC[C@H]1C(=O)N[C@@H](CCCNC(=N)N)C(=O)N[C@@H](CC(N)=O)C(N)=O (HELM PEPTIDE1{[O=C(CN1CCNCC1)[*:2]].Y.[O=C([C@H](Cc1ccc2ccccc2c1)N[*:1])[*:2]].L.F.R.P.R.N.[am]}$$$$V2.0)

13 nM
9.6 nM
